From: patent US8957083B2

TARGET_DESC: BACE 1 (Beta Secretase enzyme) (Homo sapiens (Human))
Sequence (P56817 46-501): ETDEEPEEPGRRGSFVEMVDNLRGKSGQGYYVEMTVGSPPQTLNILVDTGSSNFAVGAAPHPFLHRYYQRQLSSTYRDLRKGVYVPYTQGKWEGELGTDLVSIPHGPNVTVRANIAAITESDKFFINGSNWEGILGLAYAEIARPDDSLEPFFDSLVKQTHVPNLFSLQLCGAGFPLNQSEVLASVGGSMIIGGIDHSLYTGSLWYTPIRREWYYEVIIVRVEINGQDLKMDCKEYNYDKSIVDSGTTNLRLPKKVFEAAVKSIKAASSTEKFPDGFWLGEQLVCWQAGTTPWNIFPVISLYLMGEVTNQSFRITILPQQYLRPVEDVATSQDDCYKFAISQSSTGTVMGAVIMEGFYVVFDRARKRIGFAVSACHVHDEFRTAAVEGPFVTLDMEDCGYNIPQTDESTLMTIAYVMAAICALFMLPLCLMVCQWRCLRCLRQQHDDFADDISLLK
PROTOCOL_TEXT: In vitro enzymatic BACE FRET assay
Assay type: biochemical
PROTOCOL_CONDITIONS: class symbols; enzyme 0.2 nM, FRET substrate 50 nM, pH 4.2; read-out: BACE 1 FRET assay (IC50 class)
pIC50: −log10 of the molar value.
The entries below are paired with their reported pIC50.

// known answers, use as guide
• CN1C(=N)N[C@@]2(CC1=O)c1cc(Br)ccc1Oc1cnc(Cl)cc12 [Example 20-A] = < 6.00
• CN1C(=O)CC2(N=C1N)c1cc(-c3cccnc3F)ccc1Oc1c2cc(Cl)nc1F (stereo not shown) [Example 12] = 6.00 to 7.00
• CN1C(=N)N[C@]2(CC1=O)c1cc(Br)ccc1Oc1cnc(Cl)cc12 [Example 20-B] = < 6.00

# ---- query molecule ----
Q) Entry CN1C(=O)CC2(N=C1N)c1cc(Br)ccc1Oc1c2cc(Cl)nc1F (stereo not shown) [Example 11] has what pIC50?
A) < 6.00

###

TARGET_DESC: BACE 1 (Beta Secretase enzyme) (Homo sapiens (Human))
PROTOCOL_TEXT: In vitro enzymatic BACE FRET assay
Format: biochemical
PROTOCOL_CONDITIONS: average IC50; enzyme 0.2 nM, FRET substrate 50 nM, pH 4.2; read-out: BACE 1 FRET assay
Protocol: In Vitro Enzymatic BACE FRET (Fluorescence Resonance Energy Transfer) Assay (Enzyme Assay Data in the Example Table I) The assay buffer used in this screen is 0.05 M acetate, pH 4.2, 10% DMSO final, 100 uM genapol (which is a nonionic detergent, below its Critical Micelle Concentration). […] The FRET assay is terminated with by addition of Tris buffer, which raises the pH to neutrality, and the fluorescence is determined. […]
METRIC_NAME: pIC50
# pIC50 = -log10(concentration in molar units)

// known answers, use as guide
• CN1C(=O)C[C@]2(N=C1N)c1cc(-c3cccnc3F)ccc1Oc1c2cc(-c2ccnc(F)c2)nc1F = 8.85
• Cc1ccc(-c2cc(F)c3c(c2)[C@@]2(N=C(N)N(C)C2=O)c2cc(-c4cccc(Cl)c4)ccc2O3)cc1 = 8.54
• CN1C(=O)C[C@]2(N=C1N)c1cc(-c3cccnc3F)ccc1Oc1c2cc(Cl)nc1F = 7.48
• CN1C(=O)C[C@]2(N=C1N)c1cc(-c3cccnc3F)ccc1Oc1c2cc(C2=CCCOC2)nc1F = 8.55
• CN1C(=O)CC2(N=C1N)c1cc(-c3cccnc3F)ccc1Oc1c2cc(-c2ccnc(F)c2)nc1F (centres unmarked) = 8.62

Q) Entry `CN1C(=O)C[C@]2(N=C1N)c1cc(-c3cccnc3F)ccc1Oc1cnc(C3=CCOCC3)cc12` has what pIC50?
A) 8.03

Q) Entry CC#Cc1cncc(-c2ccc3c(c2)[C@]2(N=C(N)N(C)C2=O)c2cc(C4=CCOCC4)cc(F)c2O3)c1 (stereo in doubt) [Example 30] has what pIC50?
A) 9.05

Q) Entry `CC#Cc1cncc(-c2ccc3c(c2)[C@@]2(N=C(N)N(C)C2=O)c2cc(C4=CCOCC4)cc(F)c2O3)c1` has what pIC50?
A) 6.75

Q) Entry `CN1C(=O)[C@]2(N=C1N)c1cc(-c3cccc(Cl)c3)ccc1Oc1c(F)cc(C3=CCOCC3)cc12` has what pIC50?
A) 9.52
